Provide the reported MIC99 of each item.
system: Mtb; assay: Mtb growth inhibition (MIC99) in 7H9 and GAST-Fe media; type: cell-based, M. tuberculosis; conditions: Mycobacterium tuberculosis; rich media (7H9); read-out: Mtb MIC99 7H9

Field: example entries. Status: answers known.
• O=C(CCc1ccccc1)N(O)C/C=C/P(=O)([O-])O.[Na+] [Compound 32c] = > 100 µg/mL
• CCOP(=O)(/C=C/CN(O)C(=O)CCc1ccccc1)OCC [Compound 31c] = > 100 µg/mL
• CC(C)(C)C(=O)OCOP(=O)(/C=C/CN(O)C(=O)Cc1ccccc1)OCOC(=O)C(C)(C)C [Compound 33b] = 100 µg/mL

Hey, can you go through the list below and give me MIC99 for every item?
1. CCOP(=O)(/C=C/CN(O)C(=O)CCCc1ccccc1)OCC [Compound 31d]
2. CCOP(=O)(/C=C/CN(O)C(=O)c1ccccc1)OCC [Compound 31a]
3. O=C(Cc1ccccc1)N(O)C/C=C/P(=O)([O-])O.[Na+] [Compound 32b]
4. CC(C)(C)C(=O)OCOP(=O)(/C=C/CN(O)C(=O)c1ccccc1)OCOC(=O)C(C)(C)C [Compound 33a]
5. CCOP(=O)(/C=C/CN(O)C(=O)Cc1ccccc1)OCC [Compound 31b]

1. > 100 µg/mL
2. > 100 µg/mL
3. > 100 µg/mL
4. 50 µg/mL
5. > 100 µg/mL

Batch lookup, MIC99 per entry.
1. CC(C)(C)C(=O)OCOP(=O)(/C=C/CN(O)C(=O)CCCc1ccccc1)OCOC(=O)C(C)(C)C [Compound 33d]
2. O=C(c1ccccc1)N(O)C/C=C/P(=O)([O-])O.[Na+] [Compound 32a]
3. O=C(CCCc1ccccc1)N(O)C/C=C/P(=O)([O-])O.[Na+] [Compound 32d]

["> 100 µg/mL", "> 50 µg/mL", "> 100 µg/mL"]

###

tested on: P. falciparum; assay: Growth inhibition against P. falciparum; assay type: cell-based; settings: Plasmodium falciparum; read-out: P. falciparum growth IC50
MEASURE: pIC50
Answers are plain numbers, as −log10 of the molar value.

- CC(C)(C)C(=O)OCOP(=O)(/C=C/CN(O)C=O)OCOC(=O)C(C)(C)C [Compound 18a]: 7.89

# ---- query molecule ----
Observed pIC50 on P. falciparum for O=CN(O)CCCP(=O)(O)O [Fosmidomycin, reference compound] , please.
6.07
